Hey, just so you know, these numbers are from patent US5969115A.

- Experiment summary: Absorption maximum in water
- Assay type: physicochemical
- Condition info: state of the art dyes, Table 7
I'd appreciate it if you could supply HD max in water values for the items below.
State the value with its unit after it.

Previously resolved entries follow.
* Nc1ccc2cc(S(=O)(=O)O)c(N=Nc3ccc(N=Nc4cccc(C(=O)O)c4)c4ccc(S(=O)(=O)O)cc34)c(O)c2c1 [Compound 23, reference compound] | 570 nm
* Nc1ccc2cc(S(=O)(=O)O)c(N=Nc3ccc(N=Nc4cc(C(=O)O)cc(C(=O)O)c4)c4cc(S(=O)(=O)O)ccc34)c(O)c2c1 [Compound 25, reference compound] | 556 nm
* Nc1ccc2cc(S(=O)(=O)O)c(N=Nc3ccc(N=Nc4cc(C(=O)O)cc(C(=O)O)c4)c4ccc(S(=O)(=O)O)cc34)c(O)c2c1 [Compound 24, reference compound] | 571 nm

For each of the compounds below, state HD max in water.
1. O=C(O)CCNc1ccc2cc(S(=O)(=O)O)c(N=Nc3ccc(N=Nc4ccc(C(=O)O)cc4)c4ccc(S(=O)(=O)O)cc34)c(O)c2c1 [Compound 27, reference compound]
2. O=C(O)CCNc1ccc2cc(S(=O)(=O)O)c(N=Nc3ccc(N=Nc4cccc(C(=O)O)c4)c4ccc(S(=O)(=O)O)cc34)c(O)c2c1 [Compound 26, reference compound]

Completion:
["564 nm", "568 nm"]
